// values below are reported pIC50
test system: MCF7; test: Antiproliferative activity against human MCF7 cells assessed as reduction in cell growth after 72 hrs by MTT assay; format: functional, cell-based; settings: MCF7, 72 h
In simple prose, pIC50 is minus the logarithm base ten of a concentration in moles per litre.

molecule	obs-value
C/C=C1/CN2[C@H]3C[C@@H]1[C@@H](CO)[C@@H]2Cc1c3n(C)c2ccc(OC)c(C[C@@H](C(C)=O)[C@@H]3C[C@H]4c5c(c6ccccc6n5C)C[C@@H]([C@@H]3CO)N4C)c12	5.11
C/C=C1/CN2[C@H]3C[C@@H]1[C@@H](CO)[C@@H]2Cc1c3n(C)c2cc(C(C)C3=COC[C@@H]4[C@H]3C[C@H]3c5c(c6ccccc6n5C)C[C@@H]4N3C)c(OC)cc12 (some centres undefined)	5.35
C/C=C1/CN2[C@H]3C[C@@H]1[C@@H](CO)[C@@H]2Cc1c3n(C)c2cc(C[C@@H]3[C@@H]4C[C@H]5c6c(c7ccccc7n6C)C[C@@H]([C@@H]4CO[C@]3(C)OC)N5C)c(OC)cc12	5.28

**Query** Lab note: need pIC50 with MCF7 for entry C/C=C1/CN2[C@H]3C[C@@H]1[C@@H](CO)[C@@H]2Cc1c3n(C)c2ccc(OC)c(CC3=C(C)OC[C@@H]4[C@H]3C[C@H]3c5c(c6ccccc6n5C)C[C@@H]4N3C)c12 , please look it up.
**Result** 5.70

----------
test system: A549; experiment: Antiproliferative activity against human A549 cells assessed as reduction in cell growth after 72 hrs by MTT assay; type: functional, cell-based; settings: A549, 72 h
recorded-metric: IC50 (µM)
Your answer is read as µM, so omit the unit and give the number.

Below, each entry is followed by its recorded IC50 result.
compound	IC50 [µM]
C/C=C1/CN2[C@H]3C[C@@H]1[C@@H](CO)[C@@H]2Cc1c3n(C)c2ccc(OC)c(C[C@@H](C(C)=O)[C@@H]3C[C@H]4c5c(c6ccccc6n5C)C[C@@H]([C@@H]3CO)N4C)c12	3.9
C/C=C1/CN2[C@H]3C[C@@H]1[C@@H](CO)[C@@H]2Cc1c3n(C)c2ccc(OC)c(CC3=C(C)OC[C@@H]4[C@H]3C[C@H]3c5c(c6ccccc6n5C)C[C@@H]4N3C)c12	9
C/C=C1/CN2[C@H]3C[C@@H]1[C@@H](CO)[C@@H]2Cc1c3n(C)c2cc(C[C@H]3[C@@H]4C[C@H]5c6c(c7ccccc7n6C)C[C@@H]([C@@H]4CO[C@]3(C)OC)N5C)c(OC)cc12	6.8
C/C=C1/CN2[C@H]3C[C@@H]1[C@@H](CO)[C@@H]2Cc1c3n(C)c2cc(C[C@@H](C(C)=O)[C@@H]3C[C@H]4c5c(c6ccccc6n5C)C[C@@H]([C@@H]3CO)N4C)c(OC)cc12	3

Read the next record carefully.
**Query** Returns the measured IC50 for the input compound. Input: C/C=C1/CN2[C@H]3C[C@@H]1[C@@H](CO)[C@@H]2Cc1c3n(C)c2cc(C(C)C3=COC[C@@H]4[C@H]3C[C@H]3c5c(c6ccccc6n5C)C[C@@H]4N3C)c(OC)cc12 (stereo partly specified)
**Result** 7

----------
system: MCF7; assay: Antiproliferative activity against human MCF7 cells assessed as reduction in cell growth after 72 hrs by MTT assay; format: functional, cell-based; conditions: MCF7, 72 h
Reported pIC50 values follow for various molecules
FYI, pIC50 means -log10 of a concentration in mol per litre.

**Query** Tell me the measured pIC50 of C/C=C1/CN2[C@H]3C[C@@H]1[C@@H](CO)[C@@H]2Cc1c3n(C)c2cc(C[C@@H](C(C)=O)[C@@H]3C[C@H]4c5c(c6ccccc6n5C)C[C@@H]([C@@H]3CO)N4C)c(OC)cc12 , please.
**Result** 5.07

**Query** Suppose we examine the molecule C/C=C1/CN2[C@H]3C[C@@H]1[C@@H](CO)[C@@H]2Cc1c3n(C)c2cc(C[C@H]3[C@@H]4C[C@H]5c6c(c7ccccc7n6C)C[C@@H]([C@@H]4CO[C@]3(C)OC)N5C)c(OC)cc12 ; what pIC50 value has been reported?
**Result** 5.89

----------
tested on: KB/VJ300; assay: Antiproliferative activity against human KB/VJ300 cells assessed as reduction in cell growth after 72 hrs by MTT assay; type: functional, cell-based; conditions: KB/VJ300, 72 h
recorded-metric: pIC50
By convention, pIC50 is the negative base-10 log of a molar concentration.

smiles-str	pIC50
CC[C@]1(O)C[C@H]2CN(CCc3c([nH]c4ccccc34)[C@@](C(=O)OC)(c3cc4c(cc3OC)N(C=O)[C@H]3[C@@](O)(C(=O)OC)[C@H](OC(C)=O)[C@]5(CC)C=CCN6CC[C@]43[C@@H]65)C2)C1	6.10

Moving on to the next compound.
**Query** Which pIC50 value is on record for C/C=C1/CN2[C@H]3C[C@@H]1[C@@H](CO)[C@@H]2Cc1c3n(C)c2ccc(OC)c(CC3=C(C)OC[C@@H]4[C@H]3C[C@H]3c5c(c6ccccc6n5C)C[C@@H]4N3C)c12 ?
**Result** 5.23
